assay: CHI Log D procedure; format: physicochemical; conditions: pH 7.4
endpoint: CHI Log D
One number for each entry.

-- ask For the molecule shown here, CC(=O)N[C@@H](Cc1ccccc1)C(=O)N[C@@H](CC(=O)O)C(=O)N[C@@H](C)C(=O)N[C@]1(C)CCCCCCC=CCOC(=O)N2CC[C@@](C(=O)N[C@@H](Cc3ccccc3)C(=O)N[C@@H](Cc3c[nH]c4ccccc34)C(=O)N[C@@H](CCC(N)=O)C(N)=O)(C2)NC(=O)[C@H](C(C)C)NC(=O)[C@H](Cc2ccccc2)NC(=O)[C@H](C)NC(=O)[C@H](C)NC(=O)[C@H](Cc2ccc3ccccc3c2)NC(=O)[C@H](CC(=O)O)NC1=O [I-116] , give the reported CHI Log D.
-- reply 2.134

Can you give me CHI Log D for all of these, one by one?
1. CC(=O)N1CCC[C@]12CC=CCCCC1(CCCC=CCCCOC(=O)N3CC[C@@](C(=O)N[C@@H](Cc4ccsc4)C(=O)N[C@@H](Cc4csc5ccccc45)C(=O)N[C@@H](CO)C(N)=O)(C3)NC(=O)[C@H](CC(N)=O)NC(=O)[C@H](Cc3ccccc3)NC(=O)[C@H](C)NC(=O)[C@H](C)NC(=O)[C@H](CN(CC(=O)O)CC(F)(F)F)NC(=O)[C@H](CC(=O)O)NC1=O)NC(=O)[C@H](CC(C)(C)C)NC(=O)[C@H](CC(=O)O)NC2=O (stereo partly drawn) [I-940]
2. CC(=O)N1CCC[C@]12CC=CCCCC1(CCCC=CCCCOC(=O)N3CC[C@@](C(=O)N[C@@H](Cc4ccsc4)C(=O)N[C@@H](Cc4csc5ccccc45)C(=O)N[C@@H](CCO)C(N)=O)(C3)NC(=O)[C@H](CC(N)=O)NC(=O)[C@H](Cc3ccccc3)NC(=O)[C@H](C)NC(=O)[C@H](C)NC(=O)[C@H](CN(CC(=O)O)CC(F)(F)F)NC(=O)[C@H](CC(=O)O)NC1=O)NC(=O)[C@H](CC(C)(C)C)NC(=O)[C@H](CC(=O)O)NC2=O (stereo partly drawn) [I-951]

-- reply
2.055
1.971

====

assay: CHI Log D procedure; assay type: physicochemical; conditions: pH 7.4, CHI Log D
So I've got a bunch of compounds here, and I need their chromatographic logD values.
Give bare numbers.

Example cases with answers are listed next.
-- ask For the compound shown here, CC(=O)N1CCC[C@]12CC=CCCCC1(CCCC=CCCCCCC[C@@](C)(C(=O)N[C@@H](Cc3ccccc3)C(=O)N[C@@H](Cc3csc4ccccc34)C(=O)N[C@@H](Cc3c[nH]cn3)C(N)=O)NC(=O)[C@H]([C@@H](C)O)NC(=O)[C@H](Cc3ccccc3)NC(=O)[C@H](C)NC(=O)[C@H](C)NC(=O)[C@H](CCC(=O)O)NC(=O)[C@H](CC(=O)O)NC1=O)NC(=O)[C@H](C)NC(=O)[C@H](CC(=O)O)NC2=O (stereo partly drawn) , give the reported chromatographic logD.
-- reply 2.16

-- ask Record: CC(=O)N[C@@H](Cc1ccccc1)C(=O)N[C@@H](CC(=O)O)C(=O)N[C@@H](C)C(=O)N[C@]1(C)CCCCCCC=CCOC(=O)N2CC[C@@](C(=O)N[C@@H](Cc3ccccc3)C(=O)N[C@@H](Cc3c[nH]c4ccccc34)C(=O)N[C@@H](CCC(N)=O)C(N)=O)(C2)NC(=O)[C@H](C(C)C)NC(=O)[C@H](Cc2ccccc2)NC(=O)[C@H](C)NC(=O)[C@H](C)NC(=O)[C@H](CC2CCCCC2)NC(=O)[C@H](CC(=O)O)NC1=O (single isomer, unassigned)
-- reply 2.21

In the following, a different compound is considered.
-- ask For the compound shown here, CC(=O)N1CCC[C@]12CC=CCCCC1(CCCC=CCCCCCC[C@@](C)(C(=O)N[C@@H](Cc3c(F)c(F)c(F)c(F)c3F)C(=O)N[C@@H](Cc3c[nH]c4ccccc34)C(=O)N[C@@H](CCC(N)=O)C(N)=O)NC(=O)[C@H](C(C)C)NC(=O)[C@H](Cc3ccccc3)NC(=O)[C@H](C)NC(=O)[C@H](C)NC(=O)[C@H](CCC(=O)O)NC(=O)[C@H](CC(=O)O)NC1=O)NC(=O)[C@H](C)NC(=O)[C@H](CC(=O)O)NC2=O (stereo partly drawn) , give the reported chromatographic logD.
-- reply 2.21

====

So I've got a bunch of molecules here, and I need their IC50 values.
Target: full-length beta-Catenin (Uniprot ID P35222) (Homo sapiens)
Construct: 10 nM full-length beta-Catenin (Uniprot ID P35222)
Sequence (P35222 1-781): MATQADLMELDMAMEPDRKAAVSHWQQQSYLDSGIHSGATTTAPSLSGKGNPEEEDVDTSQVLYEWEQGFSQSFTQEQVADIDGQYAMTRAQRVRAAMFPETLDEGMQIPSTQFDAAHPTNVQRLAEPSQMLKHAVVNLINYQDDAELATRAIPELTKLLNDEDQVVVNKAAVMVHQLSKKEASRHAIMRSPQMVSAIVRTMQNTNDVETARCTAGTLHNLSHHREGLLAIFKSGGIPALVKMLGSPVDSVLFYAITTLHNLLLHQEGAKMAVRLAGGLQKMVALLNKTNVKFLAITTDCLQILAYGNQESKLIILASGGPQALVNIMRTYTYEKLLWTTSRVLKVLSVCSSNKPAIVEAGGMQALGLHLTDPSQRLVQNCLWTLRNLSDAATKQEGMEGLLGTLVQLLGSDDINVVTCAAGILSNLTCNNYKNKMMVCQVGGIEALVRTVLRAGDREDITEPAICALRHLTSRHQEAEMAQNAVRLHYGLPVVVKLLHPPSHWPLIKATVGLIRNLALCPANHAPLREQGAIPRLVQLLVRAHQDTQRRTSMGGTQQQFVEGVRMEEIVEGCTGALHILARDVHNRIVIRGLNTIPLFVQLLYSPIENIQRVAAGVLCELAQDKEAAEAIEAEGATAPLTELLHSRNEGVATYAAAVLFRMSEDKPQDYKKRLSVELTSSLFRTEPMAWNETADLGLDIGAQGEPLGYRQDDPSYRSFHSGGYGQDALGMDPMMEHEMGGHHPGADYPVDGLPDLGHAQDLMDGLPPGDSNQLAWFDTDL
Assay: Fluorescence polarization IC50 (beta-catenin / 5FAM-TCF4 10-53 competition)
Type: binding
Settings: Table E2-1; read-out: beta-Catenin FP IC50

Example cases with answers are listed next.
-- ask For the molecule shown here, CC(=O)N1CCC[C@]12CC=CCCCC1(CCCC=CCCCCCC[C@@](C)(C(=O)N[C@@H](Cc3ccc(C#N)cc3)C(=O)N[C@@H](Cc3csc4ccccc34)C(=O)N[C@@H](CCC(N)=O)C(N)=O)NC(=O)[C@H](C(C)C)NC(=O)[C@H](Cc3ccccc3)NC(=O)[C@H](C)NC(=O)[C@H](C)NC(=O)[C@H](CC(=O)O)NC(=O)[C@H](CC(=O)O)NC1=O)NC(=O)[C@H](C)NC(=O)[C@H](CC(=O)O)NC2=O (stereo partly shown) , give the reported IC50.
-- reply 5000 nM

-- ask Record: CC(=O)N1CCC[C@]12CC=CCCCC1(CCCC=CCCCCCC[C@@](C)(C(=O)N[C@@H](Cc3c[nH]cn3)C(=O)N[C@@H](Cc3c[nH]c4ccccc34)C(=O)N[C@@H](CCC(N)=O)C(N)=O)NC(=O)[C@H](C(C)C)NC(=O)[C@H](Cc3ccccc3)NC(=O)[C@H](C)NC(=O)[C@H](C)NC(=O)[C@H](CC(=O)O)NC(=O)[C@H](CC(=O)O)NC1=O)NC(=O)[C@H](C)NC(=O)[C@H](CC(=O)O)NC2=O (stereo partly shown)
-- reply 5000 nM

-- ask Record: CC(=O)N1CCC[C@]12CC=CCCCC1(CCCC=CCCCCCC[C@@](C)(C(=O)N[C@@H](Cc3cccc(F)c3)C(=O)N[C@@H](Cc3csc4ccccc34)C(=O)N[C@@H](CCC(N)=O)C(N)=O)NC(=O)[C@H](C)NC(=O)[C@H](Cc3ccccc3)NC(=O)[C@H](C)NC(=O)[C@H](C)NC(=O)[C@H](CC(=O)O)NC(=O)[C@H](CC(=O)O)NC1=O)NC(=O)[C@H](C)NC(=O)[C@H](CC(=O)O)NC2=O (stereo partly shown)
-- reply 1390 nM

-- ask Record: CC(=O)N1CCC[C@]12CC=CCCCC1(CCCC=CCCCCCC[C@@](C)(C(=O)N[C@@H](Cc3cccc(F)c3)C(=O)N[C@@H](Cc3c[nH]c4ccccc34)C(=O)N[C@@H](CCC(N)=O)C(N)=O)NC(=O)[C@H](C(C)C)NC(=O)[C@H](Cc3ccccc3)NC(=O)[C@H](C)NC(=O)[C@H](C)NC(=O)[C@H](CC(=O)O)NC(=O)[C@H](CC(=O)O)NC1=O)NC(=O)[C@H](C)NC(=O)[C@H](CC(=O)O)NC2=O (stereo partly shown)
-- reply 5000 nM

Can you give me IC50 for all of these, one by one?
1. CC[C@H](C)[C@H](NC(=O)[C@H](CC(=O)O)NC(=O)C(C)(C)NC(C)=O)C(=O)N[C@]1(C)CCN(C)C(=O)OCC=CCCCCC[C@@](C)(C(=O)N[C@@H](Cc2ccccc2)C(=O)N[C@@H](Cc2c[nH]c3ccccc23)C(N)=O)NC(=O)[C@H](CCC(N)=O)NC(=O)[C@H](Cc2ccccc2)NC(=O)[C@H](C)NC(=O)[C@H](C)NC(=O)[C@H](CCC(=O)O)NC(=O)[C@H](CC(=O)O)NC1=O
2. CC(=O)N1CCC[C@]12CC=CCCCC1(CCCC=CCCCCCC[C@@](C)(C(=O)N[C@@H](Cc3ccccc3)C(=O)N[C@@H](Cc3csc4ccccc34)C(=O)N[C@@H](CCC(N)=O)C(N)=O)NC(=O)[C@H](C)NC(=O)[C@H](Cc3cccc(C(F)(F)F)c3)NC(=O)[C@H](C)NC(=O)[C@H](C)NC(=O)[C@H](CC(=O)O)NC(=O)[C@H](CC(=O)O)NC1=O)NC(=O)[C@H](C)NC(=O)[C@H](CC(=O)O)NC2=O (stereo partly shown) [I-376]

-- reply
1640 nM
1320 nM

Can you give me IC50 for all of these, one by one?
1. CC(=O)N1CCC[C@]12CC=CCCCC1(CCCC=CCCCCCC[C@@](C)(C(=O)N[C@@H](Cc3ccccc3)C(=O)N[C@@H](Cc3c[nH]c4ccccc34)C(=O)N[C@@H](CCC(N)=O)C(N)=O)NC(=O)[C@H](C(C)C)NC(=O)[C@H](Cc3ccc(F)c(F)c3)NC(=O)[C@H](C)NC(=O)[C@H](C)NC(=O)[C@H](CC(=O)O)NC(=O)[C@H](CC(=O)O)NC1=O)NC(=O)[C@H](C)NC(=O)[C@H](CC(=O)O)NC2=O (stereo partly shown)
2. CC(=O)N1CCC[C@]12CC=CCCCC1(CCCC=CCCCCCC[C@@](C)(C(=O)N[C@@H](Cc3ccccc3)C(=O)N[C@@H](Cc3c[nH]c4c(F)cccc34)C(=O)N[C@@H](CCC(N)=O)C(N)=O)NC(=O)[C@H](C(C)C)NC(=O)[C@H](Cc3ccccc3)NC(=O)[C@H](C)NC(=O)[C@H](C)NC(=O)[C@H](CCC(=O)O)NC(=O)[C@H](CC(=O)O)NC1=O)NC(=O)[C@H](C)NC(=O)[C@H](CC(=O)O)NC2=O (stereo partly shown)
3. CC(=O)N1CCC[C@]12CC=CCCCC1(CCCC=CCCCCCC[C@@](C)(C(=O)N[C@@H](Cc3ccccc3)C(=O)N[C@@H](Cc3c[nH]c4ccccc34)C(=O)N[C@@H](CCC(N)=O)C(N)=O)NC(=O)[C@H](C(C)C)NC(=O)[C@H](Cc3ccccc3)NC(=O)[C@H](C)NC(=O)[C@H](C)NC(=O)[C@H](CCC(=O)O)NC(=O)[C@H](CC(=O)O)NC1=O)NC(=O)[C@H](C)NC(=O)[C@H](CC(=O)O)NC2=O (stereo partly shown)
4. CC[C@H](C)[C@@H]1NC(=O)[C@H](CC(=O)O)NC(=O)[C@]2(CC=CCCCC3(CCCC=CCCCCCC[C@@](C)(C(=O)N[C@@H](Cc4ccccc4)C(=O)N[C@@H](Cc4c[nH]c5ccccc45)C(N)=O)NC(=O)[C@H](CCC(N)=O)NC(=O)[C@H](Cc4ccccc4)NC(=O)[C@H](C)NC(=O)[C@H](C)NC(=O)[C@H](CCC(=O)O)NC(=O)[C@H](CC(=O)O)NC3=O)NC1=O)CCCN2C(C)=O (stereo partly shown) [I-191]

-- reply
1: 5000 nM; 2: 2160 nM; 3: 2110 nM; 4: 1660 nM
